The measurements presented in this section are drawn from the supplement of paper PMC9170038.

# Test system: MS2 coat protein
# test: apparent KD of MS2 coat protein; designed switch direction (-1 OFF switch, 1 ON switch): -1; higher = weaker reporter binding
# assay.setup: Eterna round: R95; input ligand: microRNA oligo, concentration not stated
Label rule, in plain words: apparent KD of MS2 coat protein of 40 nM and up is Met, under 40 nM is Not met.

Prompt line: I'd appreciate it if you could say whether AUUGAUAUUGAGGAUAUGCUUUUAUUUGUACUAGCAGAAGGCGAUACAUGAGGAUCACCCAUGUUUAUGGAAGU [JR_E6_Sub088] (puzzle: Exclusion 6) has apparent KD of MS2 coat protein at least equal to 40 nM.
Response line: Not met

More entries:
Prompt line: I'd appreciate it if you could say whether AAGUACCGUCACGAUAGUGAUGGUACAACAAGCAAGUGUACAUGAGGAUCACCCAUGUCCUCUUUUGCUCGUCUUAU [Sensor 3 - 95] (puzzle: Sensor v3, turn-off variant 2) has apparent KD of MS2 coat protein at least equal to 40 nM.
Response line: Not met

Prompt line: I'd appreciate it if you could say whether CUGAGCAGACGGAGAUCCAACAUGAGGAUCACCCAUGUCUCAAAAGCUUUUUGCUCGUCUUAUUCUCCUCUGUUCUC [Ainre] (puzzle: Sensor v3, turn-off variant 1) has apparent KD of MS2 coat protein at least equal to 40 nM.
Response line: Not met

Prompt line: I'd appreciate it if you could say whether UUUAAUUUUUUUUUUUUACAAGCUUUUUGCUCGUCUUAUACAUGAGGAUCACCCAUGUAGAUGGGAAGUAAAUUAUC [JMF 53] (puzzle: Sensor v3, turn-off variant 2) has apparent KD of MS2 coat protein at least equal to 40 nM.
Response line: Met

---

# Tested on: MS2 coat protein
# test: apparent KD of MS2 coat protein; designed switch direction (-1 OFF switch, 1 ON switch): -1; higher = weaker reporter binding
# assay.setup: input ligand: microRNA oligo, concentration not stated
Label rule, in plain words: apparent KD of MS2 coat protein of 20 nM and up is satisfied, under 20 nM is not satisfied.

Answered cases to consult:
Prompt line: I'd appreciate it if you could say whether GAGCCAUCGUGAGAUGGCUAAUAUACAUGAGGAUCACCCAUGUAGGAUAUCGAUUGCUUUGCAGUCGAGAAGGACAUGUUUAAU [JL ENG3 3.97] (Eterna round: R96, puzzle: Exclusion NG 3) has apparent KD of MS2 coat protein at least equal to 20 nM.
Response line: satisfied

Prompt line: I'd appreciate it if you could say whether UCUCCCUGGCAAGGAUAUCCUGUGCGGUUCCGGCUCGUGUCUGUUACAUGAGGAUCACCCAUGUGGGAGAAGGUGCCUGUGGCU [Design 92] (Eterna round: R96, puzzle: Exclusion NG 2) has apparent KD of MS2 coat protein at least equal to 20 nM.
Response line: satisfied

Prompt line: I'd appreciate it if you could say whether AGUUGUUGCGCAGGAUAUGAGGAUCACCCAUAGAAGGAUAUCGAAAGAGAAGGUCUGAGGAUUACCCAGAAGGGCGUGAUGACA [pwkr exNG2 2xF5 2xFMN.8] (Eterna round: R96, puzzle: Exclusion NG 2) has apparent KD of MS2 coat protein at least equal to 20 nM.
Response line: satisfied

Prompt line: I'd appreciate it if you could say whether GUCAGCUCGUGAGGAUAUACAUGCGUGCUUCGGCACGUAUGAUAGAUCACAUGAGGAUCACCCAUGUAGAAGGUACGAGCUGAU [ENG2/4-C2] (Eterna round: R96, puzzle: Exclusion NG 2) has apparent KD of MS2 coat protein at least equal to 20 nM.
Response line: not satisfied

Prompt line: I'd appreciate it if you could say whether GCGCCAUCGUGAGAUGGCGUACCAACAUGAGGAUCACCCAUGUAGGAUAUCGAUUGCUUUGCAGUCGAGAAGGGCAUGAUAAGU [JL ENG3 3.76] (Eterna round: R96, puzzle: Exclusion NG 3) has apparent KD of MS2 coat protein at least equal to 20 nM.
Response line: not satisfied

Prompt line: I'd appreciate it if you could say whether GCGGAGAGAGAAGGAUAUUGAAAUGCUUCUACAUGAGGAUCACCCAUGUUCGGCAGACAUGGGACCAAGAAGGUCUAUGUCGCG [Eternabot solution 27] (Eterna round: R96, puzzle: Exclusion NG 2) has apparent KD of MS2 coat protein at least equal to 20 nM.
Response line: satisfied

More entries:
Prompt line: I'd appreciate it if you could say whether GAGAGGAGUGUAGGAUAUUUAAGGGAGGAGGAGGGAGAAGGACAUGAGGAUCACCCAUGUAGGAAGAGAGGAGGAGUACAGGAG [Default title] (Eterna round: R96, puzzle: Exclusion NG 1) has apparent KD of MS2 coat protein at least equal to 20 nM.
Response line: not satisfied

Prompt line: I'd appreciate it if you could say whether GUCUACCAGCUAGGAUAUGCAGUACAGUAAAAUGUAGAAGGAGCACGAUCCAGACAUGAGGAUCACCCAUGUGGGCGGUAGGCA [Vebiena] (Eterna round: R96, puzzle: Exclusion NG 1) has apparent KD of MS2 coat protein at least equal to 20 nM.
Response line: not satisfied

Prompt line: I'd appreciate it if you could say whether GUUGUUUAUGUAGGAUAUGCCUGGCGUGCCUAUGCAGAAGGACAUGAGGAUCACCCAUGUAUUGCGGUCUGCGUUCAGAUCGCU [salish99_ExNG1_r4_020] (Eterna round: R96, puzzle: Exclusion NG 1) has apparent KD of MS2 coat protein at least equal to 20 nM.
Response line: not satisfied

---

# Tested on: MS2 coat protein
# test: apparent KD of MS2 coat protein; designed switch direction (-1 OFF switch, 1 ON switch): 1; higher = weaker reporter binding
# assay.setup: Eterna round: R95; input ligand: FMN 200 uM
As shown below, each of these sequences has a reported apparent KD of MS2 coat protein value.
Entry rule: numbers only, all in nM.

These recorded examples may help you get a feel for the data.
Prompt line: Return reported apparent KD of MS2 coat protein; argument: AGUCCAGCGAAAGCUGGACAAAAGCAUGUACAUGAGGAUCACCCAUGUUCAUGUACAAGUUUUUUGCUCGUUUUAAA [JL mod - D95 - 18] (puzzle: Sensor for hsa-mir-208a)
Response line: 37.8

Prompt line: Return reported apparent KD of MS2 coat protein; argument: GGUGUACAUGAGGAUCACCCAUGUCGACCGCUCACAGGAUAUUUAUUACAAACUGGUAGCGGAGAAGGGUGAGGGC [Maarraar] (puzzle: Same State 1)
Response line: 36.4

Prompt line: Return reported apparent KD of MS2 coat protein; argument: CGUAGGUAGCUGGAGGAUAUUCGAGUGGUAACAUGAGGAUCACCCAUGUGGAGUUAGGUACAUGAGGAGAAGGCUAGCUGCCUGC [JL-ss2-3.18 JL mod] (puzzle: Same State 2)
Response line: 10.4

Prompt line: Return reported apparent KD of MS2 coat protein; argument: ACGUGGAUAUCACAGGAUAUACUCAUAACUACAUGAGGAUCACCCAUGUAGCGGUAUUCCGAUGCGUAGAAGGGUGAUGGACCAC [Same State 2 - Mod of Artece v.2] (puzzle: Same State 2)
Response line: 13.9

Prompt line: Return reported apparent KD of MS2 coat protein; argument: AAAGUACAUGAGGAUCACCCAUGUAAAAGACUCACAGGAUAUGCUUCUUGUGUACAAGCUGCAGAAGGGUGAAAAG [Oraes] (puzzle: Same State 1)
Response line: 30.8

We now examine a further sequence.
Prompt line: Return reported apparent KD of MS2 coat protein; argument: CAGCACUAUCGAGAGGAUAUGCGGUGAUGGACAUGAGGAUCACCCAUGUUAGCGGUAGCAUCACGGCAGAAGGCUCUGCUGCUGC [Soteed Omei mod 39] (puzzle: Same State 2)
Response line: 20.4

---

As shown below, each of these sequences has a reported apparent KD of MS2 coat protein value.
# System: MS2 coat protein
# test: apparent KD of MS2 coat protein; designed switch direction (-1 OFF switch, 1 ON switch): -1; higher = weaker reporter binding
# assay.setup: Eterna round: R95; input ligand: none
Entry rule: numbers only, all in nM.

Prompt line: // fetch MS2 coat protein apparent KD of MS2 coat protein for AAGAAUGAAGGAUAUACAUGAGGAUCACCCAUGUAAAAAAAAUUUUUUAGUUUUUCAUGUAGAAGGUCAAGAAG [JR_Exclusion3_Sub001] (puzzle: Exclusion 3)
Response line: 43.6

Prompt line: // fetch MS2 coat protein apparent KD of MS2 coat protein for GGUCAAGAACAGAUCCGCGCUGCCAUUGACCGCUCAUUUACAUGAGGAUCACCCAUGUUUUUUGCUCAUCUUGUUAC [Usdila] (puzzle: Sensor v3, turn-off variant 2)
Response line: 19.8

More entries:
Prompt line: // fetch MS2 coat protein apparent KD of MS2 coat protein for GGUCUGCGAGGAUAUACAUGAGGAUCACCCAUGUGCGAGAAACUAGUGAGGUCGGUUGGUAGAAGGCGCGGACG [Mat - Exclusion 3 - Mod of JL D89] (puzzle: Exclusion 3)
Response line: 32.8

Prompt line: // fetch MS2 coat protein apparent KD of MS2 coat protein for GGGCGGCGGACCGUGGCUUUUUGCUCGUCUUAUGCUUCGACAUGAGGAUCACCCAUGUGGUGGUGGUCCGUUGUGGG [Grok-var2-13 mod JAL] (puzzle: Sensor v3, turn-off variant 2)
Response line: 20.8

Prompt line: // fetch MS2 coat protein apparent KD of MS2 coat protein for AUGAGCAGACGGAGAUCCAACAUGAGGAUCACCCAUGUCUCAAAAGCUUUUUGCUCAUCUUAUUGUACCUUGGUGCG [Mat - Sensor v3 - turn-off var 1 - JL Mod - D18] (puzzle: Sensor v3, turn-off variant 1)
Response line: 170
